target: PARP-1 (Homo sapiens); test: PARP-1 radioligand binding in live OVCAR8 cells ([125I]KX1 competition)
Measured metric: EC50 (nM)

Examples from the recorded data:
compound="CO[C@H]1C[C@@H](NC(=O)c2cc(Cc3n[nH]c(=O)c4ccccc34)ccc2F)C1 [Compound 19]" result_number=20.8
compound="O=C(c1cc(Cc2n[nH]c(=O)c3ccccc23)ccc1F)N1CCC2(CC1)CCN(C(=O)C1CC1)CC2 [Compound 17d]" result_number=44.3
compound="O=C(c1cc(Cc2n[nH]c(=O)c3ccccc23)ccc1F)N1CC2(C1)CN(C(=O)C1CC1)C2 [Compound 10e]" result_number=12.6

A = COC1CN(C(=O)c2cc(Cc3n[nH]c(=O)c4ccccc34)ccc2F)C1 [Compound 23]
B = O=C(c1cc(Cc2n[nH]c(=O)c3ccccc23)ccc1F)N1CCC2(CCNCC2)CC1 [Compound 17c]
Q: Consider A and B . Which of these has its EC50 at a higher number? Write down the label attached to your selection.
Ans: B
(B: 234 nM, A: 8.27 nM)

* * *

test system: MEF PARP-2 (-/-) KO cells; test: Cell viability assay in MEF PARP-2 KO-/- cells; assay type: cell-based, mouse; settings: Mus musculus, NA = Not applicable, no cell death observed
Measured metric: EC50 (µM)
Write down the numeric answer in µM and omit the unit.

Example cases with answers are listed next.
compound="O=C(C1CC1)N1CCC2(CC1)CCN2C(=O)c1cc(Cc2n[nH]c(=O)c3ccccc23)ccc1F [Compound 13d]" result_number=44.4
compound="O=C(C1CC1)N1CC2(CCN2C(=O)c2cc(Cc3n[nH]c(=O)c4ccccc34)ccc2F)C1 [Compound 11d]" result_number=46.7
compound="CC(C)(C)OC(=O)N1CCC2(CC1)CCN2C(=O)c1cc(Cc2n[nH]c(=O)c3ccccc23)ccc1F [Compound 13b]" result_number=33.2
compound="O=C(c1cc(Cc2n[nH]c(=O)c3ccccc23)ccc1F)N1CCC2(CCCCC2)CC1 [Compound 17a]" result_number=41.3

Here is the next item to consider.
EC50 for O=C(c1cc(Cc2n[nH]c(=O)c3ccccc23)ccc1F)N1CC2(CCCCC2)C1 [Compound 12a] is 39.9

* * *

target: PARP-1 (Homo sapiens, UniProt P09874); test: PARP-1 radioligand binding in live OVCAR8 cells ([125I]KX1 competition)
Sequence (P09874 whole entry): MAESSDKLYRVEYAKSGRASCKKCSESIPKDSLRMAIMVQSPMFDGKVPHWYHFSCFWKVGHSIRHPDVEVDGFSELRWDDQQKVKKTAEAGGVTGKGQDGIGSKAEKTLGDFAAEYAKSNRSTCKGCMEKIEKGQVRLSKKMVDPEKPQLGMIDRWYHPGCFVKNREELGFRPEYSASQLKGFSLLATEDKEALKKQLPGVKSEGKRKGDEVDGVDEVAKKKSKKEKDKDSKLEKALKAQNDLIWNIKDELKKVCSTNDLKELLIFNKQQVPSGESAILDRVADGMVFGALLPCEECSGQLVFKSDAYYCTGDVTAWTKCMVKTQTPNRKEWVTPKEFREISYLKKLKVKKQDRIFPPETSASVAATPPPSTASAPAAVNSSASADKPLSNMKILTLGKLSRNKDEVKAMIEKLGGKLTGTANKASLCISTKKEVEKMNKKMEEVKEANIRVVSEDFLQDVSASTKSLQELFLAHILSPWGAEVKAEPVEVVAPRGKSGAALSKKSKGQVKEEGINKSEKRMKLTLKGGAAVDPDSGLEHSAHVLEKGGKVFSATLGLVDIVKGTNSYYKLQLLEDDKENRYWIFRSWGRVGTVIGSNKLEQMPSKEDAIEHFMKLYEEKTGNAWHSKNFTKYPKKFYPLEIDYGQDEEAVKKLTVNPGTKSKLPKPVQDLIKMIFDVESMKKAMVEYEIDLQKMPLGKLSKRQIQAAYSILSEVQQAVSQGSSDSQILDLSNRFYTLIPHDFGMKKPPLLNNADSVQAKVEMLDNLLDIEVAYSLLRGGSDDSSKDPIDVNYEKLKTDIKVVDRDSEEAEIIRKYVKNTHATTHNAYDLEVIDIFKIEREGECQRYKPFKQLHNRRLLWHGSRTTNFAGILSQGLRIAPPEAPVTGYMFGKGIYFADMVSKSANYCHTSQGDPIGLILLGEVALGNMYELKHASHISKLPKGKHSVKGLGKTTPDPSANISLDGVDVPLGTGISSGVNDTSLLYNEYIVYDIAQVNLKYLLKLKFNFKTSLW
Measured metric: EC50 (nM)

These recorded examples may help you get a feel for the data.
compound=O=C(c1cc(Cc2n[nH]c(=O)c3ccccc23)ccc1F)N1CC[C@H](OCCF)C1 result_number=6.88
compound="O=C(c1cc(Cc2n[nH]c(=O)c3ccccc23)ccc1F)N1CC2(CCC2)C1 [Compound 10a]" result_number=33.9
compound="O=C(c1cc(Cc2n[nH]c(=O)c3ccccc23)ccc1F)N1CCC2(CCCC2)C1 [Compound 15a]" result_number=51.4
compound="O=C(c1cc(Cc2n[nH]c(=O)c3ccccc23)ccc1F)N1CCC2(CCC2)C1 [Compound 14a]" result_number=32.4
compound="O=C(c1cc(Cc2n[nH]c(=O)c3ccccc23)ccc1F)N1CCC2(CCN(C(=O)C3CC3)C2)C1 (centres unmarked) [Compound 15d]" result_number=2590
compound="O=C(C1CC1)N1CCC2(CC1)CCN2C(=O)c1cc(Cc2n[nH]c(=O)c3ccccc23)ccc1F [Compound 13d]" result_number=431

P = O=C(c1cc(Cc2n[nH]c(=O)c3ccccc23)ccc1F)N1CC2(CCNCC2)C1 [Compound 12c]
Q = O=C(c1cc(Cc2n[nH]c(=O)c3ccccc23)ccc1F)N1CC2(CNC2)C1 [Compound 10d]
Q: Out of P and Q , name the one with the higher EC50. Write the label of whichever entry you select.
Ans: Q
(Q: 2390 nM, P: 1420 nM)
